The reported numbers originate from a melting point compilation (Tetko et al.).

I'd appreciate it if you could supply melting point values for the items below.
Please state the figure in °C; there is no need to write the unit.

Look up melting point: Cn1c(Br)nc(C(=O)O)c1C(=O)O
160

Look up melting point: CCCCCCc1ccc(C#Cc2ccc(CC)cc2)cc1
10

Look up melting point: Clc1ccc(Br)s1
-20

Look up melting point: Cc1cccc2cc3ccc4ccccc4c3cc12
118

Look up melting point: O=C1NCCO1
87

Look up melting point: CC(=O)OC1CCC2(C)C(=CCC3C4CCC(=O)C4(C)CCC32)C1 (stereo not drawn)
147

Look up melting point: O=C(c1ccc2ccccc2c1)c1noc(-c2ccc(Br)cc2)c1S(=O)(=O)c1ccccc1
173

---

I'd appreciate it if you could supply melting point values for the items below.
Please state the figure in °C; there is no need to write the unit.

Look up melting point: Oc1ccc2c(O)c3ccccc3cc2c1O
208

Look up melting point: CC(=O)c1ccc(C#Cc2ccccc2)cc1
101

Look up melting point: C#CCCCCCCCC#C
-17

Look up melting point: O=C(Oc1cccc(N=Nc2cccc(OC(=O)c3ccccc3)c2)c1)c1ccccc1
180

---

reported.endpoint: melting point

Look up melting point: O=C(Cl)c1cccc2nsnc12
110 to 114 °C

Look up melting point: O=c1oc(-c2c(F)cccc2Cl)cc2ccccc12
241 °C

Look up melting point: O=[N+]([O-])c1cccnc1Sc1ccc(Cl)cc1
127 to 129 °C

Look up melting point: COc1ccc(-c2csc(/C(C#N)=N\Nc3cc(C)ccc3C)n2)cc1
155 °C

Look up melting point: CCOC(=O)C1=C(N)n2nc(C(F)(F)F)nc2NC1c1ccc(Cl)cc1 (centres undefined)
198 °C

Look up melting point: O=C(O)C(O)c1cc(F)cc(F)c1 (centres undefined)
136 °C

Look up melting point: O=Cc1cccc(CN2CCOCC2)c1
63 to 64 °C

Look up melting point: Cc1ccc(Cl)c(Cl)c1Cl
43.5 °C

Look up melting point: CC(C)(C)Oc1ncc(Br)cn1
62 °C

Look up melting point: Clc1cccc2cccc(Cl)c12
89 °C

Look up melting point: C=C(CC(=O)O)C(=O)O
175 °C

Look up melting point: Cc1nc(-c2ccc(S(=O)(=O)NN)cc2)c(-c2ccc(S(=O)(=O)NN)cc2)o1
178 to 180 °C

Look up melting point: S=c1ssc(S)c1-c1ccccc1
153 to 155 °C

Look up melting point: COCCOc1cnc(NS(=O)(=O)c2ccccc2)nc1
152 °C

Look up melting point: CCCCCCCCCCCCOC(C)=O
1.3 °C

Look up melting point: COc1cc(C=O)cc(Br)c1O
164 to 166 °C

Look up melting point: CCOc1ccc(C(NC(=O)c2ccccc2)NC(=O)c2ccccc2)cc1OC
211 °C

Look up melting point: C[Si](C)(Cl)CC[Si](C)(C)Cl
37 °C

Look up melting point: CCC1(C(=O)NC(C)c2ccc(Cl)cc2)C(C)C1(Cl)Cl (centres undefined)
160 °C

Look up melting point: COC(=O)c1ccc2c(I)c[nH]c2c1
150 °C

Look up melting point: COC(=O)C1(C)CCC(CCc2ccccc2)C1(C)C (centres undefined)
44 °C

Look up melting point: CC12COC(=O)CC1CCC1C2CCC2(C)C1CCC2(C)O (centres undefined)
236 °C

Look up melting point: Cc1ccc(S(=O)(=O)N2C(C)C2c2ccccc2)cc1 (centres undefined)
188 to 190 °C

Look up melting point: CCCCn1c2ccccc2c2ccccc21
58 °C

Look up melting point: O=c1[nH]c2ccc(S(=O)(=O)CCO)cc2o1
207 to 211 °C

Look up melting point: O=Cc1ccsc1Sc1ccc(Cl)cc1
57 to 60 °C

Look up melting point: CCOC(=O)C1C(c2ccccc2O)C(C(=O)OCC)C(O)(C(F)(F)F)NC1(O)C(F)(F)F (centres undefined)
91 °C

Look up melting point: COc1c(C(C)(C)C(C)C)c2nc3ccccc3nc2c2ccccc12
88.6 °C

Look up melting point: NC(C(=O)O)(c1ccccc1)C1CCC1 (centres undefined)
256 to 258 °C

Look up melting point: CN(C)c1ccc2cc3ccc(N(C)C)cc3nc2c1
165 °C

Look up melting point: Cn1c(=O)c(C2=NNC(=O)C2=Cc2cccc(O)c2)c(O)c2ccccc21
290 °C

Look up melting point: CCCCCCCCCCCCC1CCCCC1
12.5 °C

Look up melting point: CCCC1C2=C(OC(=O)C1(C)C)c1ccc(OC)cc1CC2 (centres undefined)
129 °C

Look up melting point: CCCCCC(=O)c1ccccc1
27 °C

Look up melting point: NC(=O)N1c2ccccc2CC(=O)c2ccccc21
216 °C

Look up melting point: O=C(O)C1(c2ccccc2)CC1
87 °C

Look up melting point: Cc1ccccc1N1CSc2nnc(-c3cccc([N+](=O)[O-])c3)n2C1
239 to 240 °C

Look up melting point: C/C=C(\C)c1ccccc1
-23.5 °C

Look up melting point: CCOC(=O)c1cc(-c2cccs2)nn1C
72 to 73 °C

Look up melting point: Clc1ccc(C2NN=C3c4ccccc4CCC32)cc1 (centres undefined)
181 to 184 °C

Look up melting point: O=S(=O)(c1ccccc1)N1CCNCC1
111 to 112 °C

Look up melting point: C#CC1(O)CCC2C3CCC4=CC(O)CCC4(C)C3CCC21C (centres undefined)
204 °C

Look up melting point: Cc1noc(C)c1C=O
35 to 38 °C

Look up melting point: CCOC(=O)C1=C(C)NC(=S)NC1c1ccco1 (centres undefined)
174 to 175 °C

Look up melting point: CCOC(=O)Nc1ccc2c(c1)N(C(=O)CCN1CCOCC1)c1ccccc1S2
156 °C

Look up melting point: O=C(C1=NOC2C(=O)N(c3ccc(F)cc3)C(=O)C12)c1ccc2ccccc2c1 (centres undefined)
193 °C

Look up melting point: O=c1[nH]cc(Cl)cc1Cl
180 °C

Look up melting point: N#Cc1cc([N+](=O)[O-])ccc1Sc1nnc(N)s1
245 to 246 °C

Look up melting point: CCOCCOCCOCCO
-18.7 °C
